- TESTED_TARGET: hASIC1b (Homo sapiens)
- Construct: expressed in transfected cells; host or cells: Xenopus laevis oocytes (cRNA injection)
- Sequence (P78348 1-562 isoform P78348-3): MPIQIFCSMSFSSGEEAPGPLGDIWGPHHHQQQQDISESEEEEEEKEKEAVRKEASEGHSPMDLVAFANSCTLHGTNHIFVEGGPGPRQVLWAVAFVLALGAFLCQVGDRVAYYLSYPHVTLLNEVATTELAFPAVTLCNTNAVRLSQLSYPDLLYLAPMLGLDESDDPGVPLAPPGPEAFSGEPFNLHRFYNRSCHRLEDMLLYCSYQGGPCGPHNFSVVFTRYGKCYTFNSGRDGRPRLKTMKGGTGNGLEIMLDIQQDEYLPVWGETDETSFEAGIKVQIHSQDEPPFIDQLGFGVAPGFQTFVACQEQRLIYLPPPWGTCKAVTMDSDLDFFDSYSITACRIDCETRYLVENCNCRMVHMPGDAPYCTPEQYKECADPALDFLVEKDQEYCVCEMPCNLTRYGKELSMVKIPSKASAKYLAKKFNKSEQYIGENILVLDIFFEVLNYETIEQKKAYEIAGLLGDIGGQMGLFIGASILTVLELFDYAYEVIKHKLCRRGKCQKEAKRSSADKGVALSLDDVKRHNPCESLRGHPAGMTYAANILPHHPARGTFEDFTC
- TEST_DESCRIPTION: TEVC in Xenopus laevis oocytes expressing hASIC1b
- Format: cell-based
- CONDITION_SET: 1 µM peptide, pH 6 evoked currents, conditioning pH 7.45; mean, n ≥ 5; read-out: I/Icontrol
Positions of bridges follow the written chain, without caps; N, C: chain ends. No end group written: not given here.

- SUBSTANCE: "H-SLKCYQHGKVVTCHRDMKFCYHNIGMPFANLKLILQGCSSSCSETENNKCCSTDRCNK (disulfide 4-20, 13-38, 42-50, 51-56 (inferred)) [R28A]"
  remaining activity at 1 µM: "118%"
- SUBSTANCE: "H-SLKCYQHGKVVTCHRDMKFCYHNIGMPFRNLKLILQGCSSSCSETENNKCCSTDACNK (disulfide 4-20, 13-38, 42-50, 51-56 (inferred)) [R54A]"
  remaining activity at 1 µM: "145%"
- SUBSTANCE: "H-SLKCYQHGKVVTCHRDMKFCYHNIGMPFRNLKAILQGCSSSCSETENNKCCSTDRCNK (disulfide 4-20, 13-38, 42-50, 51-56 (inferred)) [L32A]"
  remaining activity at 1 µM: "100%"

---

- TESTED_TARGET: hASIC1b (Homo sapiens, UniProt P78348)
- Construct: expressed in transfected cells; host or cells: Xenopus laevis oocytes (cRNA injection)
- TEST_DESCRIPTION: TEVC in Xenopus laevis oocytes expressing hASIC1b
- Type: cell-based
- CONDITION_SET: 1 µM peptide, pH 5 evoked currents, conditioning pH 7.45; mean, n ≥ 5; read-out: I/Icontrol
Positions of bridges follow the written chain, without caps; N, C: chain ends. No end group written: not given here.
Readings of remaining activity at 1 µM for the listed substances

- SUBSTANCE: "H-SLKCYQHGKVVTCHRDMKFCYHNIGMPFRNAKLILQGCSSSCSETENNKCCSTDRCNK (disulfide 4-20, 13-38, 42-50, 51-56 (inferred)) [L30A]"
  remaining activity at 1 µM [%]: 116
- SUBSTANCE: "H-SLKCYQHGKVVTCHRDMKFCYHNIGMPFRNLKLILQGCSSSCSETANNKCCSTDRCNK (disulfide 4-20, 13-38, 42-50, 51-56 (inferred)) [E45A]"
  remaining activity at 1 µM [%]: 68
- SUBSTANCE: "H-SLKCYQHGKVVTCHRDMKFCYHNIGMPARNLKLILQGCSSSCSETENNKCCSTDRCNK (disulfide 4-20, 13-38, 42-50, 51-56 (inferred)) [F27A]"
  remaining activity at 1 µM [%]: 96
- SUBSTANCE: "H-SLKCYQHGKVVTCHRDMKFCYHNIGMPFRNLKLILAGCSSSCSETENNKCCSTDRCNK (disulfide 4-20, 13-38, 42-50, 51-56 (inferred)) [Q35A]"
  remaining activity at 1 µM [%]: 71
- SUBSTANCE: "H-SLKCYQHGKVVTCHRDMKFCYHNIGMPFRNLKLILQGCSSSCSETENNKCCSTDRCNK (disulfide 4-20, 13-38, 42-50, 51-56 (inferred)) [Ma-3, mambalgin-3]"
  remaining activity at 1 µM [%]: 69

---

- TESTED_TARGET: rASIC1a (Rattus norvegicus, UniProt P55926)
- Construct: expressed in transfected cells; host or cells: Xenopus laevis oocytes (cRNA injection)
- Sequence (P55926 whole entry): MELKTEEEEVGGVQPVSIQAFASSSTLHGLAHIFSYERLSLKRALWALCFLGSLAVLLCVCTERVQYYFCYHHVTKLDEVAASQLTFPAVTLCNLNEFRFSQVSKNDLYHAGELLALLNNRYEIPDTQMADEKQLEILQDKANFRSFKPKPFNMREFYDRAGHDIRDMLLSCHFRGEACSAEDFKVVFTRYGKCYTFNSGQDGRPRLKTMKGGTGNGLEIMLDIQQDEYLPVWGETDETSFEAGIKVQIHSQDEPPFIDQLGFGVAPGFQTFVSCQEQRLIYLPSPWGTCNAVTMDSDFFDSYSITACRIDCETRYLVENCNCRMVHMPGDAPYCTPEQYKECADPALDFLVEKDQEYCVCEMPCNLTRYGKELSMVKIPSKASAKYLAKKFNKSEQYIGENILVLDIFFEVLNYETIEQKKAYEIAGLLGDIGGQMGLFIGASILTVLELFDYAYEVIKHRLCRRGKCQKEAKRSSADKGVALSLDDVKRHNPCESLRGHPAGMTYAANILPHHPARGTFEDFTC
- TEST_DESCRIPTION: TEVC in Xenopus laevis oocytes expressing rASIC1a
- Type: cell-based
- CONDITION_SET: peptides applied at pH 7.45, stimulated at pH 6
Positions of bridges follow the written chain, without caps; N, C: chain ends. No end group written: not given here.
MEASUREMENT_LABEL: increase in IC50 (loss of potency) relative to wild-type Ma-3

- SUBSTANCE: "H-SLKCYQHGKVVTCHRDMKFCYHNIGMPFRNLKAILQGCSSSCSETENNKCCSTDRCNK (disulfide 4-20, 13-38, 42-50, 51-56 (inferred)) [L32A]"
  TESTED_TARGET: "rASIC1a (Rattus norvegicus, UniProt P55926)"
  ASSAY_RESULT: "greater than 10 fold"
- SUBSTANCE: "H-SLKCYQHGKVVTCHRDMKFCYHNIGMPFRNLKLALQGCSSSCSETENNKCCSTDRCNK (disulfide 4-20, 13-38, 42-50, 51-56 (inferred)) [I33A]"
  TESTED_TARGET: "rASIC1a (Rattus norvegicus, UniProt P55926)"
  ASSAY_RESULT: "greater than 10 fold"
- SUBSTANCE: "H-SLKCYQHGKVVTCHRDMKFCYHNIGMPARNLKLILQGCSSSCSETENNKCCSTDRCNK (disulfide 4-20, 13-38, 42-50, 51-56 (inferred)) [F27A]"
  TESTED_TARGET: "rASIC1a (Rattus norvegicus, UniProt P55926)"
  ASSAY_RESULT: "greater than 10 fold"
- SUBSTANCE: "H-SLKCYQHGKVVTCHRDMKFCYHNIGMPFRNLKLIAQGCSSSCSETENNKCCSTDRCNK (disulfide 4-20, 13-38, 42-50, 51-56 (inferred)) [L34A]"
  TESTED_TARGET: "rASIC1a (Rattus norvegicus, UniProt P55926)"
  ASSAY_RESULT: "greater than 10 fold"
- SUBSTANCE: "H-SLKCYQAGKVVTCHRDMKFCYHNIGMPFRNLKLILQGCSSSCSETENNKCCSTDRCNK (disulfide 4-20, 13-38, 42-50, 51-56 (inferred)) [H6A]"
  TESTED_TARGET: "rASIC1a (Rattus norvegicus, UniProt P55926)"
  ASSAY_RESULT: "greater than 10 fold"
- SUBSTANCE: "H-SLKCYQHGAVVTCHRDMKFCYHNIGMPFRNLKLILQGCSSSCSETENNKCCSTDRCNK (disulfide 4-20, 13-38, 42-50, 51-56 (inferred)) [K8A]"
  TESTED_TARGET: "rASIC1a (Rattus norvegicus, UniProt P55926)"
  ASSAY_RESULT: "~ 4 fold"
- SUBSTANCE: "H-SLKCYQHGKVVTCHRDMKFCYHNIGMPFANLKLILQGCSSSCSETENNKCCSTDRCNK (disulfide 4-20, 13-38, 42-50, 51-56 (inferred)) [R28A]"
  TESTED_TARGET: "rASIC1a (Rattus norvegicus, UniProt P55926)"
  ASSAY_RESULT: "greater than 10 fold"

---

Recorded remaining activity at 1 µM, one value per entry.
- TESTED_TARGET: hASIC1b (Homo sapiens)
- Construct: expressed in transfected cells; host or cells: Xenopus laevis oocytes (cRNA injection)
- TEST_DESCRIPTION: TEVC in Xenopus laevis oocytes expressing hASIC1b
- Type: cell-based
- CONDITION_SET: 1 µM peptide, pH 5 evoked currents, conditioning pH 7.45; mean, n ≥ 5; read-out: I/Icontrol
Positions of bridges follow the written chain, without caps; N, C: chain ends. No end group written: not given here.

- SUBSTANCE: "H-SLKCYQHGKVVTCARDMKFCYHNIGMPFRNLKLILQGCSSSCSETENNKCCSTDRCNK (disulfide 4-20, 13-38, 42-50, 51-56 (inferred)) [H13A]"
  remaining activity at 1 µM (%): 74
- SUBSTANCE: "H-SLKCYQHGKVVTCHRDMKFCYHNIGMPFANLKLILQGCSSSCSETENNKCCSTDRCNK (disulfide 4-20, 13-38, 42-50, 51-56 (inferred)) [R28A]"
  remaining activity at 1 µM (%): 97
- SUBSTANCE: "H-SLKCYQHGAVVTCHRDMKFCYHNIGMPFRNLKLILQGCSSSCSETENNKCCSTDRCNK (disulfide 4-20, 13-38, 42-50, 51-56 (inferred)) [K8A]"
  remaining activity at 1 µM (%): 75

Sourced from paper PMC11335189
